- measurementDescription: Inhibition of platelet aggregation using human platelet rich plasma (hPRP) assay (200microL, 2-3 x 10e 8 platelets/mL, n=1)
pIC50: −log10 of the molar value.

- smilesData: "CC(C)[C@H]1NC(=O)c2cccc(c2F)CNC(=O)[C@H](CC(=O)O)NC(=O)CNC(=O)[C@H](CCCN=C(N)N)N(C)C1=O"
  pIC50: 7.70
- smilesData: "CC(C)[C@H]1NC(=O)C2=CC=C(CNC(=O)[C@H](CC(=O)O)NC(=O)CNC(=O)[C@H](CCCNC(=N)N)N(C)C1=O)O2"
  pIC50: 7.30
- smilesData: "CC(C)[C@H]1NC(=O)/C=C\\CCNC(=O)[C@H](CC(=O)O)NC(=O)CNC(=O)[C@H](CCCNC(=N)N)N(C)C1=O"
  pIC50: 6.70
- smilesData: "CC(C)[C@H]1NC(=O)c2ccc([nH]2)CNC(=O)[C@H](CC(=O)O)NC(=O)CNC(=O)[C@H](CCCNC(=N)N)N(C)C1=O"
  pIC50: 7.00
- smilesData: "CC(C)[C@H]1NC(=O)Cc2csc(n2)NC(=O)[C@H](CC(=O)O)NC(=O)CNC(=O)[C@H](CCCN=C(N)N)N(C)C1=O"
  pIC50: 6.40
- smilesData: "CC(C)[C@H]1NC(=O)C/C=C\\CNC(=O)[C@H](CC(=O)O)NC(=O)CNC(=O)[C@H](CCCN=C(N)N)N(C)C1=O"
  pIC50: 6.70
- smilesData: "CC(C)[C@H]1NC(=O)c2cccc(c2)CNC(=O)[C@H](CC(=O)O)NC(=O)CNC(=O)[C@H](CCCNC(=N)N)N(C)C1=O"
  pIC50: 7.70
- smilesData: "CC(C)[C@H]1NC(=O)c2cccc(n2)CNC(=O)[C@H](CC(=O)O)NC(=O)CNC(=O)[C@H](CCCN=C(N)N)N(C)C1=O"
  pIC50: 5.70
- smilesData: "CC(C)[C@H]1NC(=O)C2=CC=C(CNC(=O)[C@H](CC(=O)O)NC(=O)CNC(=O)[C@H](CCCN=C(N)N)N(C)C1=O)S2"
  pIC50: 7.00
